Target: Muscarinic acetylcholine receptor M4 (Homo sapiens) (UniProt P08173)
Sequence (P08173 whole entry, looked up): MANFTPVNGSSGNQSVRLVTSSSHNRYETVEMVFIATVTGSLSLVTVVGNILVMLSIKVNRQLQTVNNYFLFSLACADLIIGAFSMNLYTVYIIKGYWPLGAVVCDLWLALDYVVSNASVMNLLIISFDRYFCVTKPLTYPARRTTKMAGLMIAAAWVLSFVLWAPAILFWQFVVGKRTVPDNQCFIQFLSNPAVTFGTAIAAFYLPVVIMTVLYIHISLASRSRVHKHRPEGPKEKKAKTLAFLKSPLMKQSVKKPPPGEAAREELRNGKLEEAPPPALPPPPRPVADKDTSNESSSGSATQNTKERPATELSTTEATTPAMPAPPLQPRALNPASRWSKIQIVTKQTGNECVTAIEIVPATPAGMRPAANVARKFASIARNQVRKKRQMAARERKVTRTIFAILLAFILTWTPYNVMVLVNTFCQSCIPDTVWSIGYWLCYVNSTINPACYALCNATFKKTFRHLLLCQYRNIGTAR
Test: human M4 muscarinic receptor antagonists, primary screen, CHO cells, Fluo-8 calcium fluorescence (AID 624125);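 note: 0% = acetylcholine EC80 with DMSO and 100% = DMSO without agonist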
Details: CHO-hM4 cells, ACh EC80, Fluo-8 calcium fluorescence; at 3 µM; hits give high values
The campaign covered roughly 360,000 compounds. About 2,600 (0.72%) were called active. The full list was thinned out, with actives kept by preference.
inhibition reference
# output: bare number, implied unit %

Completed entries (count: 5):
| Compound | Scale unit | inhibition |
| --- | --- | --- |
| Cc1sc2ncnc(N3CCC(C(=O)Nc4nc5ccc(Cl)cc5s4)CC3)c2c1C | % | -9.33 |
| CSCCC(NS(=O)(=O)c1ccccc1F)C(=O)N1CC=C(c2ccccc2)CC1 (stereo not drawn) | % | 3.15 |
| Cc1cc(S(=O)(=O)N2CCOCC2)ccc1OCC(=O)Nc1cccc(C(F)(F)F)c1 | % | 14.2 |
| O=C(CC1Oc2ccccc2NC1=O)NCCCN1CCN(Cc2ccccc2)CC1 (stereo not drawn) | % | -1.94 |
| CN(C)c1ccc(CNC23CN4CN(CN(C4)C2)C3)cc1 | % | 3.33 |

// field: inhibition; key: "CCOC(=O)[C@H]1[C@H]2COc3ccc(C)cc3[C@@H]2N2C(=O)CN(Cc3ccc(F)cc3)C(=O)[C@@]12C" ; value = 56.2

// field: inhibition; key: "O=C(Nc1ccc(F)cc1)c1cc2c(s1)CCCC2" ; value = 1.82

// field: inhibition; key: CC(C(=O)Nc1ccc(S(=O)(=O)N2CCCC2)cc1)N(C)Cc1ccc(F)cc1 (stereo not drawn) ; value = -3.14

// field: inhibition; key: "CCc1cc2c(NC3CCCC3)ncnc2s1" ; value = 11.2

// field: inhibition; key: Cc1cc(Cl)ccc1C(=O)C1CCCN(C(=O)CCN2CCCO2)C1 (stereo not drawn) ; value = 4.93

----------
inhibition reference
Target: Muscarinic acetylcholine receptor M4 (Homo sapiens)
Experiment: human M4 muscarinic receptor antagonists, primary screen, CHO cells, Fluo-8 calcium fluorescence (AID 624125);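 note: 0% = acetylcholine EC80 with DMSO and 100% = DMSO without agonist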
Details: CHO-hM4 cells, ACh EC80, Fluo-8 calcium fluorescence; at 3 µM; hits give high values
The whole screen tested about 360,000 compounds, of which about 2,600 (0.72%) were called active. The sample holds actives, similar compounds and a random draw of the others, so the mix is not that of the screen.
# output: bare number, implied unit %

// field: inhibition; key: "CCOC(=O)N1CCN(C(=O)c2cn(C)c3ccc(S(=O)(=O)N4CCCC4)cc3c2=O)CC1" ; value = 58.7

// field: inhibition; key: "Nc1scc[n+]1Cc1cccc2cccnc12" ; value = -7.43

// field: inhibition; key: "COc1ccc(N2CCN(C(=O)c3cn(C)c4ccc(S(=O)(=O)N5CCOCC5)cc4c3=O)CC2)cc1" ; value = -12.4

// field: inhibition; key: "CN(Cc1cc2cc(F)ccc2[nH]1)Cc1nc(-c2cnccn2)no1" ; value = -8.36

// field: inhibition; key: "CCOC(=O)N1CCN(C(=O)c2cn(C)c3ccc(S(=O)(=O)N(CC)CC)cc3c2=O)CC1" ; value = -13.5

----------
Target: Muscarinic acetylcholine receptor M4 (Homo sapiens) (UniProt P08173)
Test: human M4 muscarinic receptor antagonists, primary screen, CHO cells, Fluo-8 calcium fluorescence (AID 624125);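 note: 0% = acetylcholine EC80 with DMSO and 100% = DMSO without agonist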
Conditions: CHO-hM4 cells, ACh EC80, Fluo-8 calcium fluorescence; at 3 µM; hits give high values
Among all 360,000 compounds or so, about 2,600 (0.72%) were called active. Shown is part of a subset that was picked to be rich in actives.
Parameter: inhibition

Completed entries (count: 3):
| Compound | inhibition |
| --- | --- |
| Clc1ccc(C=NC23CN4CN(CN(C4)C2)C3)cc1 | -1.64% (inactive) |
| CC(=O)OC(COc1ccc(F)cc1)Cn1cnc2ccccc21 (stereo not drawn) | 11.2% (inactive) |
| O=C(CSc1ccc([N+](=O)[O-])cn1)Nc1ccc(N2CCOCC2)cc1 | -3.21% (inactive) |

// field: inhibition; key: CC(C)c1ccc(OCC(O)Cn2cnc3ccccc32)cc1 (stereo not drawn) ; value = 32% (active)

// field: inhibition; key: O=C(COC(=O)c1ccc(S(=O)(=O)Nc2ccccc2)cc1)NCC1CCCO1 (stereo not drawn) ; value = 0.71% (inactive)

// field: inhibition; key: "COc1ccc(NC(=O)N(C)C[C@H]2Oc3ccc(NC(=O)C4CC4)cc3C(=O)N([C@H](C)CO)C[C@@H]2C)cc1" ; value = -10% (inactive)

// field: inhibition; key: "COC(=O)c1cc(NC(=O)CN2CCN(C(C)=O)CC2)cc(C(=O)OC)c1" ; value = 1.81% (inactive)

// field: inhibition; key: CSCCC1NC(=O)N(CC(=O)Nc2cccc(S(=O)(=O)N3CCCCCC3)c2)C1=O (stereo not drawn) ; value = -15.2% (inactive)
